studySystem: UniProt:Q6R2G6
Type: biochemical, avian influenza H5N1 clade 2 (Indonesia)
studyConditions: read-out: IC50 at 10 min, 30' Pre
measure: IC50 (nM)
Numbers only; they are read as nM.

Enquiry: Reported IC50 for UniProt:Q6R2G6, given CCC(CC)[C@H](NC(C)=O)[C@@H]1[C@H](O)[C@@H](C(=O)O)C[C@H]1N=C(N)N ?
Return: 0.4

###

studySystem: H1N1 pandemic influenza virus A/Swine/Shepparton/2009 NA (Influenza A virus, UniProt I6NQT4)
protocolSummary: biochemical
Format: biochemical, influenza virus A/Swine/Shepparton/2009 pandemic H1N1
studyConditions: IC50 at 10 min, 30' Pre
measure: IC50 (nM)
Numbers only; they are read as nM.

Enquiry: What does the record list as IC50 for CC(=O)N[C@H]1[C@H]([C@H](O)[C@H](O)CO)OC(C(=O)O)=C[C@@H]1N=C(N)N ?
Return: 0.5

###

studySystem: A/Fukui/45/04 H3N2 wild type NA (Influenza A virus)
Type: biochemical, influenza virus A/Fukui/45/04 H3N2
studyConditions: read-out: final IC50 after 60 min, No pre
measure: IC50 (nM)
Numbers only; they are read as nM.

Enquiry: Reported IC50 for A/Fukui/45/04 H3N2 wild type NA (Influenza A virus), given CCC(CC)[C@H](NC(C)=O)[C@@H]1[C@H](O)[C@@H](C(=O)O)C[C@H]1N=C(N)N [Peramivir, peramivir] ?
Return: 11.9

###

studySystem: clade 1 H5N1 virus from Vietnam N1 NA (Influenza A virus, UniProt Q6DPL2)
Assay type: biochemical, avian influenza H5N1 clade 1 (Vietnam)
studyConditions: read-out: IC50 at 10 min, No pre
measure: IC50 (nM)
Numbers only; they are read as nM.

Enquiry: What does the record list as IC50 for CCC(CC)[C@H](NC(C)=O)[C@@H]1[C@H](O)[C@@H](C(=O)O)C[C@H]1N=C(N)N [Peramivir, peramivir] ?
Return: 40.9

###

studySystem: B/Perth/211/01 influenza B wild type NA (Influenza B virus)
Type: biochemical, influenza B virus B/Perth/211/01
studyConditions: read-out: IC50 at 10 min, 30' Pre
measure: IC50 (nM)
Numbers only; they are read as nM.

Enquiry: What does the record list as IC50 for CCC(CC)[C@H](NC(C)=O)[C@@H]1[C@H](O)[C@@H](C(=O)O)C[C@H]1N=C(N)N ?
Return: 1.9

###

studySystem: clade 2 H5N1 virus from Indonesia N1 NA (Influenza A virus, UniProt Q6R2G6)
Assay type: biochemical, avian influenza H5N1 clade 2 (Indonesia)
studyConditions: read-out: IC50 at 10 min, No pre
measure: IC50 (nM)
Numbers only; they are read as nM.

Enquiry: What does the record list as IC50 for CCC(CC)[C@H](NC(C)=O)[C@@H]1[C@H](O)[C@@H](C(=O)O)C[C@H]1N=C(N)N ?
Return: 37.7

###

studySystem: clade 1 H5N1 virus from Vietnam N1 NA (Influenza A virus)
Assay type: biochemical, avian influenza H5N1 clade 1 (Vietnam)
studyConditions: read-out: final IC50 after 60 min, 30' pre
measure: pIC50
Please treat pIC50 as minus the base-10 logarithm of the molar concentration.

Enquiry: Reported pIC50 for clade 1 H5N1 virus from Vietnam N1 NA (Influenza A virus), given CCC(CC)[C@H](NC(C)=O)[C@@H]1[C@H](O)[C@@H](C(=O)O)C[C@H]1N=C(N)N ?
Return: 9.52

###

studySystem: clade 2 H5N1 virus from Indonesia N1 NA (Influenza A virus, UniProt Q6R2G6)
Assay type: biochemical, avian influenza H5N1 clade 2 (Indonesia)
studyConditions: read-out: final IC50 after 60 min, 30' pre
measure: pIC50
Please treat pIC50 as minus the base-10 logarithm of the molar concentration.

Enquiry: What does the record list as pIC50 for CCC(CC)[C@H](NC(C)=O)[C@@H]1[C@H](O)[C@@H](C(=O)O)C[C@H]1N=C(N)N ?
Return: 9.22

###

studySystem: B/Perth/211/01 influenza B wild type NA (Influenza B virus)
Type: biochemical, influenza B virus B/Perth/211/01
studyConditions: read-out: IC50 at 10 min, No pre
measure: IC50 (nM)
Numbers only; they are read as nM.

Enquiry: What does the record list as IC50 for CCC(CC)[C@H](NC(C)=O)[C@@H]1[C@H](O)[C@@H](C(=O)O)C[C@H]1N=C(N)N ?
Return: 259

###

studySystem: clade 1 H5N1 virus from Vietnam N1 NA (Influenza A virus)
Format: biochemical, avian influenza H5N1 clade 1 (Vietnam)
studyConditions: read-out: IC50 at 10 min, 30' Pre
measure: IC50 (nM)
Numbers only; they are read as nM.

Enquiry: What does the record list as IC50 for CCC(CC)[C@H](NC(C)=O)[C@@H]1[C@H](O)[C@@H](C(=O)O)C[C@H]1N=C(N)N ?
Return: 0.2

###

studySystem: A/Mississippi/03/01 H1N1 wild type NA (Influenza A virus, UniProt Q289M4)
Format: biochemical, influenza virus A/Mississippi/03/01 H1N1
studyConditions: read-out: final IC50 after 60 min, No pre
measure: IC50 (nM)
Numbers only; they are read as nM.

Enquiry: What does the record list as IC50 for CCC(CC)[C@H](NC(C)=O)[C@@H]1[C@H](O)[C@@H](C(=O)O)C[C@H]1N=C(N)N ?
Return: 3.1

###

studySystem: clade 1 H5N1 virus from Vietnam N1 NA (Influenza A virus)
Format: biochemical, avian influenza H5N1 clade 1 (Vietnam)
studyConditions: read-out: final IC50 after 60 min, No pre
measure: IC50 (nM)
Numbers only; they are read as nM.

Enquiry: Reported IC50 for clade 1 H5N1 virus from Vietnam N1 NA (Influenza A virus), given CCC(CC)[C@H](NC(C)=O)[C@@H]1[C@H](O)[C@@H](C(=O)O)C[C@H]1N=C(N)N ?
Return: 6.2

###

studySystem: H1N1 pandemic influenza virus A/Swine/Shepparton/2009 NA (Influenza A virus)
protocolSummary: biochemical
Format: biochemical, influenza virus A/Swine/Shepparton/2009 pandemic H1N1
studyConditions: read-out: IC50 at 10 min, No pre
measure: IC50 (nM)
Numbers only; they are read as nM.

Enquiry: What does the record list as IC50 for CCC(CC)[C@H](NC(C)=O)[C@@H]1[C@H](O)[C@@H](C(=O)O)C[C@H]1N=C(N)N [Peramivir, peramivir] ?
Return: 10.1

###

studySystem: A/Mississippi/03/01 H1N1 wild type NA (Influenza A virus)
Type: biochemical, influenza virus A/Mississippi/03/01 H1N1
studyConditions: read-out: IC50 at 10 min, No pre
measure: IC50 (nM)
Numbers only; they are read as nM.

Enquiry: What does the record list as IC50 for CCC(CC)[C@H](NC(C)=O)[C@@H]1[C@H](O)[C@@H](C(=O)O)C[C@H]1N=C(N)N ?
Return: 20.2

###

studySystem: B/Perth/211/01 influenza B wild type NA (Influenza B virus)
Assay type: biochemical, influenza B virus B/Perth/211/01
studyConditions: read-out: final IC50 after 60 min, 30' pre
measure: pIC50
Please treat pIC50 as minus the base-10 logarithm of the molar concentration.

Enquiry: Reported pIC50 for B/Perth/211/01 influenza B wild type NA (Influenza B virus), given CCC(CC)[C@H](NC(C)=O)[C@@H]1[C@H](O)[C@@H](C(=O)O)C[C@H]1N=C(N)N ?
Return: 8.55

###

studySystem: UniProt Q6R2G6
Format: biochemical, avian influenza H5N1 clade 2 (Indonesia)
studyConditions: read-out: final IC50 after 60 min, No pre
measure: IC50 (nM)
Numbers only; they are read as nM.

Enquiry: What does the record list as IC50 for CCC(CC)[C@H](NC(C)=O)[C@@H]1[C@H](O)[C@@H](C(=O)O)C[C@H]1N=C(N)N [Peramivir, peramivir] ?
Return: 5.4

###

studySystem: B/Perth/211/01 influenza B wild type NA (Influenza B virus)
Format: biochemical, influenza B virus B/Perth/211/01
studyConditions: read-out: final IC50 after 60 min, No pre
measure: pIC50
Please treat pIC50 as minus the base-10 logarithm of the molar concentration.

Enquiry: Reported pIC50 for B/Perth/211/01 influenza B wild type NA (Influenza B virus), given CCC(CC)[C@H](NC(C)=O)[C@@H]1[C@H](O)[C@@H](C(=O)O)C[C@H]1N=C(N)N ?
Return: 7.56

###

studySystem: H1N1 pandemic influenza virus A/Swine/Shepparton/2009 NA (Influenza A virus, UniProt I6NQT4)
protocolSummary: biochemical
Assay type: biochemical, influenza virus A/Swine/Shepparton/2009 pandemic H1N1
studyConditions: read-out: IC50 at 10 min, 30' Pre
measure: pIC50
Please treat pIC50 as minus the base-10 logarithm of the molar concentration.

Enquiry: What does the record list as pIC50 for CCC(CC)[C@H](NC(C)=O)[C@@H]1[C@H](O)[C@@H](C(=O)O)C[C@H]1N=C(N)N [Peramivir, peramivir] ?
Return: 9.70

###

studySystem: A/Mississippi/03/01 H1N1 wild type NA (Influenza A virus, UniProt Q289M4)
Type: biochemical, influenza virus A/Mississippi/03/01 H1N1
studyConditions: read-out: IC50 at 10 min, 30' Pre
measure: pIC50
Please treat pIC50 as minus the base-10 logarithm of the molar concentration.

Enquiry: Reported pIC50 for A/Mississippi/03/01 H1N1 wild type NA (Influenza A virus, UniProt Q289M4), given CCC(CC)[C@H](NC(C)=O)[C@@H]1[C@H](O)[C@@H](C(=O)O)C[C@H]1N=C(N)N ?
Return: 9.52

Values from paper PMC3157426
